Molecular target: T1, cynomolgus recombinant IL-4Rα (cynomolgus (table head: cyno/rhesus), UniProt A0A2K5V556 26-232)
T1 construct: Bought reagent; also called cyno/rhesus IL-4Rα; cyno IL-4Rα
T1 sequence: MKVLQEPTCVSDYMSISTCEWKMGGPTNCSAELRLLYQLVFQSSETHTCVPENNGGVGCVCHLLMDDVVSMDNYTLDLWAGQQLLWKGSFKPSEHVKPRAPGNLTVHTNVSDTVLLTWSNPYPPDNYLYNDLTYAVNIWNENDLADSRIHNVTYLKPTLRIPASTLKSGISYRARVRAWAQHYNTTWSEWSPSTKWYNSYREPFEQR
Assay: SPR (Biacore 3000), periplasmic Fab over CM5 chip coated with cyno IL-4Rα
Measured R0 (binding) by item

{"columns": ["binder", "R0 (binding)"],
 "data": [
  ["153A11 Fab (variant of 4RMP3D6) (Fab, V domains shown, Fab from periplasmic extract, with CH1 and CK constant domains; also called VH153A11) VH: QVQLQESGGGLVQPGGSLRLSCAASGFTFSSYSLTWVRQAPGKGLEWVSTIKARGGTTLYADSVKDRFTISRDNAKNTLYLQMNSLKPEDTAVYYCAKPLYSNLAGDFGSWGQGTTVTVSS VL: DIQMTQSPSSLSASLGDRVTITCQASQSISSYLAWYQQKSGQAPKLLIYGGSRLQTGVPSRFSGSGSGTSFTLTISGLETEDLATYYCLQVYSWPLTFGQGTKLEIK", 146],
  ["153E11 Fab (variant of 4RMP3D6) (Fab, V domains shown, Fab from periplasmic extract, with CH1 and CK constant domains; also called VH153E11) VH: QVQLQESGGGLVQPGGSLRLSCAASGFTFSSYSLTWVRQAPGKGLEWVSTIKARGGTTLYADSVKDRFTISRDNAKNTLYLLMNSLKPEDTAVYYCAKPLYNNFAGHFGSWGQGTTVTVSS VL: DIQMTQSPSSLSASLGDRVTITCQASQSISSYLAWYQQKPGQAPKLLIYGGSRLQTGVPSRFSGSGSGTSFTLTISGLETEDLATYYCQQDYSWPLTFGQGTKLEIK", 78],
  ["3D6wt Fab (parental 4RMP3D6 as Fab) (Fab, V domains shown, also called h4R3D6) VH: QVQLQESGGGLVQPGGSLRLSCAASGFTFSSYSLTWVRQAPGKGLEWVSTIKARGGTTLYADSVKDRFTISRDNAKNTLYLLMNSLKPEDTAVYYCAKPLYNNFAGDFGSWGQGTTVTVSS VL: DIQMTQSPSSLSASLGDRVTITCQASQSISSYLAWYQQKPGQAPKLLIYGGSRLQTGVPSRFSGSGSGTSFTLTISGLETEDLATYYCLQDYSWPLTFGQGTKVELK", 26]
]}
